Every entry's value here was drawn from paper PMC2919811.

The following compounds each carry a recorded pIC50 for UniProt:Q9NPD5.
Sequence (Q9NPD5 whole entry): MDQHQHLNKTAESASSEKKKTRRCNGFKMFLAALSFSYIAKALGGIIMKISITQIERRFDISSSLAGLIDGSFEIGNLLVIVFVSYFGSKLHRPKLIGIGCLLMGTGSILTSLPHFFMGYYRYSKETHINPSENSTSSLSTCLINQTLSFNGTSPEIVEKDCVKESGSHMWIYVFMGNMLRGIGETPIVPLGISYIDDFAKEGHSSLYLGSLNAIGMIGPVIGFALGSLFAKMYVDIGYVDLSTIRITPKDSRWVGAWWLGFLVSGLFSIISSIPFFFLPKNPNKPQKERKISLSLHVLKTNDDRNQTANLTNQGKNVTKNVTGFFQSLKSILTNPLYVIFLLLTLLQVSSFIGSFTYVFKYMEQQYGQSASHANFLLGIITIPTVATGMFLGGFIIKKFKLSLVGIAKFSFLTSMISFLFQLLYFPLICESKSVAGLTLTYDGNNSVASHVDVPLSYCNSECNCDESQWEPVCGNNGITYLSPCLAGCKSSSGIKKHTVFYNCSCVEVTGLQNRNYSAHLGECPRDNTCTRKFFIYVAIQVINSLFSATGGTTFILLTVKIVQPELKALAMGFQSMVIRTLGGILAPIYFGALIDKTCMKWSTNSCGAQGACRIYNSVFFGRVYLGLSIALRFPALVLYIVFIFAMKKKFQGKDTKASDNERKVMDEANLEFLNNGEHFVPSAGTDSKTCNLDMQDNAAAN
Answers are plain numbers, as −log10 of the molar value.

Check out these entries, answers already filled in.
NC(Cc1cc(I)c(Oc2cc(I)c(O)c(I)c2)c(I)c1)C(=O)O (stereo not drawn) [thyroxine] : 5.67
CO[C@H]1/C=C/O[C@@]2(C)Oc3c(C)c(O)c4c(O)c(c(/C=N/N5CCN(C)CC5)c(O)c4c3C2=O)NC(=O)/C(C)=C\C=C\[C@H](C)[C@H](O)[C@@H](C)[C@@H](O)[C@@H](C)[C@H](OC(C)=O)[C@@H]1C [rifampicin] : 6.19

Pending compound:
input: Give the reported pIC50 for COc1ccc(Cl)cc1C(=O)NCCc1ccc(S(=O)(=O)NC(=O)NC2CCCCC2)cc1 [glibenclamide] (system: UniProt:Q9NPD5).
output: 5.57
